Data credit: patent US20070021434A1

Record form. Attribute: pIC50. Fill in for each entry.
# tested_system: UniProtKB P26663
pIC50: −log10 of the molar value.

// known answers, use as guide
{"molecule": "Cc1cc2cc(NC(=O)[C@H](Cc3ccc(CN)cc3)NC(=O)Nc3ccc(OCc4ccccc4)cc3)ccc2[nH]1 [Compound 227]", "pIC50": "> 5.00"}
{"molecule": "COc1cccc(NCC(=O)N[C@@H](CCCCN)C(=O)Nc2ccc(C)cc2)c1 [Compound 358]", "pIC50": "4.30 to 5.00"}
{"molecule": "NCCCC[C@@H](NC(=O)NCc1ccc(Cl)cc1)C(=O)Nc1ccc(C2CCCCC2)cc1 [Compound 164]", "pIC50": "> 5.00"}
{"molecule": "CC(=O)Nc1ccc(NC(=O)[C@H](CCCCN)NC(=O)OCC2c3ccccc3-c3ccccc32)cc1 [Compound 230]", "pIC50": "< 4.30"}
{"molecule": "Cc1ccc(NC(=O)[C@H](CCCNC(=O)CN)NC(=O)Nc2ccc(OCc3ccccc3)cc2)cc1 [Compound 322]", "pIC50": "4.30 to 5.00"}

Below is a list of molecules. For each, state its recorded pIC50.
1. Cc1ccc(NC(=O)C(Cc2ccc(CN)cc2)NC(=O)OCC2c3ccccc3-c3ccccc32)cc1 (centres unmarked) [Compound 129]
2. NCCCC[C@H](NC(=O)OCC1c2ccccc2-c2ccccc21)C(=O)Nc1cccc2[nH]ccc12 [Compound 208]
3. Cc1ccc(NC(=O)[C@H](CCCCN)NC(=O)COc2cccc(Cl)c2)cc1 [Compound 330]

Solution:
1. > 5.00
2. > 5.00
3. < 4.30

* * *

# tested_system: UniProt P26663
# Format: biochemical, hepatitis C virus
measurement_name: IC50

// known answers, use as guide
{"compound": "Cc1ccc(NC(=O)C(CCCCN)NC(=O)Nc2ccc3ccccc3c2)cc1 (stereo not shown)", "IC50": "10 to 50 µM"}
{"compound": "Cc1cc2cc(NC(=O)[C@H](CCCCNC(=O)CN)NC(=O)OCC3c4ccccc4-c4ccccc43)ccc2[nH]1", "IC50": "< 10 µM"}
{"compound": "CC(C)(C)c1ccc(NC(=O)[C@H](Cc2ccc(CN)cc2)NC(=O)NCc2ccccc2)cc1", "IC50": "> 50 µM"}

Here's the next entry for you.
Problem: Given the entry O=C(CC1CNCCN1C(=O)NCc1ccc(Cl)cc1)Nc1ccc(C2CCCCC2)cc1 (stereo not shown) , what IC50 was observed with UniProt P26663?
Solution: 10 to 50 µM

* * *

# tested_system: NS5B (Replizyme, UK), HCV genotype 1b Δ21 RdRp (UniProt P26663)
# Construct: other: Replizyme enzyme
# Assay type: biochemical, hepatitis C virus
# study_conditions: Replizyme enzyme; read-out: Experimental IC50, Replizyme
measurement_name: pIC50
One number for each entry, as −log10 of the molar value.

Problem: Any idea what pIC50 was measured for "O=c1ccn([C@@H]2O[C@H](COP(=O)(O)OP(=O)(O)OP(=O)(O)O)C[C@H]2O)c(=O)[nH]1" ?
Solution: 6.89

* * *

pIC50: −log10 of the molar value.
Record set of pIC50 for target or system HCV RdRp (NS5B) (UniProt P26663).

// known answers, use as guide
{"molecule": "Cc1ccc(NC(=O)C(CCCCN)NC(=O)Nc2ccc(-c3nc4ccccc4o3)cc2)cc1 (centres unmarked)", "pIC50": "4.30 to 5.00"}
{"molecule": "NCCCC[C@H](NC(=O)Nc1ccc(OCc2ccccc2)cc1)C(=O)N1CCOCC1", "pIC50": "4.30 to 5.00"}
{"molecule": "NCCCC[C@@H](NC(=O)Nc1ccc(-c2ccccc2)cc1)C(=O)Nc1ccc(C2CCCCC2)cc1", "pIC50": "> 5.00"}

Below is a list of molecules. For each, state its recorded pIC50.
1. Cc1ccc(NC(=O)[C@H](CCCCN)NS(=O)(=O)c2ccc(C)cc2)cc1
2. COc1ccc2cc(C(=O)NC(CCCCN)C(=O)Nc3ccc(C)cc3)ccc2c1 (centres unmarked)
3. Cc1ccc(NC(=O)C(Cc2ccc(CN)cc2)NC(=O)Nc2ccc3c(c2)Cc2ccccc2-3)cc1 (centres unmarked)
4. Cc1ccc(CNC(=O)NC(CCCCN)C(=O)Nc2ccc(C)cc2)cc1 (centres unmarked)
5. NCc1ccc(NC(=O)[C@@H](NC(=O)OCC2c3ccccc3-c3ccccc32)c2ccccc2)cc1
6. Cc1ccc(NC(=O)[C@H](CCCN)NC(=O)Nc2ccc(OCc3ccccc3)cc2)cc1
7. Cc1ccc(NC(=O)C(CCCCN)NC(=O)Nc2ccc(OC(C)c3ccccc3)cc2)cc1 (centres unmarked)

Solution:
< 4.30
< 4.30
> 5.00
< 4.30
4.30 to 5.00
< 4.30
< 4.30

Below is a list of molecules. For each, state its recorded pIC50.
1. N[C@@H](Cc1ccccc1)C(=O)Nc1ccc(CN(C(=O)c2ccco2)C2CCCCC2)cc1
2. Cc1ccc(NC(=O)C(CCCCN)NC(=O)Nc2ccc(CCc3ccccc3)cc2)cc1 (centres unmarked)
3. Cc1ccc(NC(=O)C(CCCCN)NC(=O)C(N)Cc2cccc3ccccc23)cc1 (centres unmarked) [Compound 61]
4. Cc1ccc(NC(=O)C(CCCCN)NC(=O)C(N)Cc2cccc3ccccc23)cc1 (centres unmarked) [Compound 77]

Solution:
< 4.30
< 4.30
< 4.30
< 4.30

Below is a list of molecules. For each, state its recorded pIC50.
1. Cc1ccc(NC(=O)C(CCCCN)NC(=O)Nc2cc(C(F)(F)F)cc(C(F)(F)F)c2)cc1 (centres unmarked)
2. NCCCC[C@H](NC(=O)Nc1ccc(OCc2ccccc2)cc1)C(=O)Nc1ccc2c(c1)CCC2

Solution:
["4.30 to 5.00", "4.30 to 5.00"]

Below is a list of molecules. For each, state its recorded pIC50.
1. Cc1ccc(NC(=O)[C@H](CCCCN)NC(=O)NCc2ccc(Cl)cc2)cc1
2. Cc1ccc(NC(=O)C(CNC(=O)CN)NC(=O)Nc2ccc(OCc3ccccc3)cc2)cc1 (centres unmarked)
3. Cc1ccc(NC(=O)[C@H](CCCCN)NC(=O)COc2ccc(Cl)cc2)cc1
4. Cc1ccc(NC(=O)[C@H](CCCCN)NC(=O)CNc2ccccc2F)cc1

Solution:
< 4.30
4.30 to 5.00
< 4.30
< 4.30

Below is a list of molecules. For each, state its recorded pIC50.
1. Cc1cc2cc(NC(=O)[C@H](CCCCN)NC(=O)Nc3ccc(OCc4ccccc4)cc3)ccc2[nH]1
2. Cc1ccc(NC(=O)[C@H](CCCCN)NC(=O)Nc2ccc(Oc3ccccc3)cc2)cc1
3. CCCCNC(=O)[C@H](CCCCN)NC(=O)Nc1ccc(OCc2ccccc2)cc1
4. NCCCCC[C@H](NC(=O)NCc1ccccc1)C(=O)Nc1ccc(C2CCCCC2)cc1
5. NCCCC[C@H](NC(=O)NCc1ccccc1)C(=O)Nc1ccc(CN(C(=O)c2ccco2)C2CCCCC2)cc1
6. Cc1ccc(NC(=O)C(CCCCN)NC(=O)c2ccc3c4c(cccc24)CC3)cc1 (centres unmarked)
7. Cc1ccc(NC(=O)[C@H](CCCCN)NC(=O)CNc2ccc3c(c2)CCC3)cc1

Solution:
1. 4.30 to 5.00
2. < 4.30
3. < 4.30
4. > 5.00
5. < 4.30
6. < 4.30
7. < 4.30

Below is a list of molecules. For each, state its recorded pIC50.
1. Cc1ccc(NC(=O)C(Cc2c[nH]c3ccccc23)NC(=O)OCC2c3ccccc3-c3ccccc32)cc1 (centres unmarked) [Compound 378]
2. Cc1ccc(NC(=O)C(N)CNC(=O)OCC2c3ccccc3-c3ccccc32)cc1 (centres unmarked)
3. NCCCC[C@@H](NC(=O)NCc1ccccc1)C(=O)Nc1ccc(C2CCCCC2)cc1

Solution:
1: < 4.30; 2: < 4.30; 3: > 5.00

Below is a list of molecules. For each, state its recorded pIC50.
1. Cc1ccc(NC(=O)C(CN)NC(=O)OCC2c3ccccc3-c3ccccc32)cc1 (centres unmarked) [Compound 103]
2. Cc1ccc(NC(=O)CC2CNCCN2C(=O)OCC2c3ccccc3-c3ccccc32)cc1 (centres unmarked)

Solution:
1: < 4.30; 2: < 4.30

* * *

# tested_system: recombinant NS5BΔ21 HCV RdRp enzyme (genotype 1b, produced in-house)
# method_notes: RdRp assay with ELISA, recombinant in-house enzyme
# study_conditions: read-out: Experimental IC50, Recombinant
measurement_name: pIC50
Give bare numbers, as −log10 of the molar value.

// known answers, use as guide
{"sample_smiles": "CC(C)Cn1c(=O)c(C2=Nc3ccccc3S(=O)(=O)N2)c(O)c2ccccc21", "pIC50": 5.55}
{"sample_smiles": "O=C(O)COc1ccc2[nH]cc(C[C@H](NC(=O)c3ccc4c(c3)nc(-c3ccoc3)n4C3CCCCC3)C(=O)O)c2c1", "pIC50": 7.22}
{"sample_smiles": "O=C(O)c1ccc2c(c1)nc(-c1ccccn1)n2C1CCCCC1", "pIC50": 5.46}

Here's the next entry for you.
Problem: Any idea what pIC50 was measured for "CCCCn1c(=O)c(C2=NS(=O)(=O)c3ccccc3N2)c(O)c2ccccc21" ?
Solution: 5.74
